biological target: T1, OsE2F1 aa 100-250 (Oryza sativa); assay: Y2H; output trait library
T1 construct: bait, Gal4 DBD fusion; also called PN19758; O. sativa E2F Homolog
T1 sequence (chain, as listed by the source): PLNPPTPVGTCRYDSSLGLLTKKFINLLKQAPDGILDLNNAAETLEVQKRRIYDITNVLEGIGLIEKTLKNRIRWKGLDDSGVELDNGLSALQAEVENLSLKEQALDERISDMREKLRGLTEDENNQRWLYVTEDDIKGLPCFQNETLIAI
Ends that are not written are not given here.
measured-property: binding result

binder="RFEATTKSKLASLNEKLDILERKLEVLEVQVSSATTNPSVFN (other, not fully specified, prey, AD fusion; also called Novel Protein PN30852) [OsPN30852 aa 45-86]" value_measured=binds
binder="Os018989-4003 aa 177-294 (other, prey, AD fusion; also called PN21044) NYRYEKIQKLEEVHKELITRIKNKKKLLQEIEKQFDDLQNITLRNQASQRPAESVNGILLPFLLIKTSRKARVEIEISEDSKFARFDFNGAPFTMHDDVSILEAIRRNKGRAGLSIHP" value_measured=binds
binder="Os018989-4003 aa 9-179 (other, prey, AD fusion; also called PN21044; Hypothetical Protein 018989-4003, Similar to Triticum sp; DP Protein) AAAASAAPGLANLLIREGAGLPSRPERYPPFRPCTSDSFAPISREGDDIPPQKKSVSLRSGGGGNAAEREEGGANRNGKKEKTGAQRITGWGLREFSKIVSKKVEAKGRTTYNEVADEIFAELKSITQNGLEFDEKNIRRRVYDAFNVLIAIRVIAKDKKEIKWMGLTNYR" value_measured=binds
